The reported measurements were obtained from ChEMBL document CHEMBL2151039.

# tested_target: 5-hydroxytryptamine receptor 3A (Homo sapiens)
# test_description: Binding affinity to human 5HT3A receptor
measured_attribute: Ki (nM)
One number for each entry, in nM.

Input c1cnc2c(c1)C[C@@]1(CN3CCC1CC3)O2 , output reported Ki. 12

* * *

# tested_target: Neuronal acetylcholine receptor subunit alpha-7 (Rattus norvegicus, UniProt Q05941)
# Sequence (Q05941 whole entry): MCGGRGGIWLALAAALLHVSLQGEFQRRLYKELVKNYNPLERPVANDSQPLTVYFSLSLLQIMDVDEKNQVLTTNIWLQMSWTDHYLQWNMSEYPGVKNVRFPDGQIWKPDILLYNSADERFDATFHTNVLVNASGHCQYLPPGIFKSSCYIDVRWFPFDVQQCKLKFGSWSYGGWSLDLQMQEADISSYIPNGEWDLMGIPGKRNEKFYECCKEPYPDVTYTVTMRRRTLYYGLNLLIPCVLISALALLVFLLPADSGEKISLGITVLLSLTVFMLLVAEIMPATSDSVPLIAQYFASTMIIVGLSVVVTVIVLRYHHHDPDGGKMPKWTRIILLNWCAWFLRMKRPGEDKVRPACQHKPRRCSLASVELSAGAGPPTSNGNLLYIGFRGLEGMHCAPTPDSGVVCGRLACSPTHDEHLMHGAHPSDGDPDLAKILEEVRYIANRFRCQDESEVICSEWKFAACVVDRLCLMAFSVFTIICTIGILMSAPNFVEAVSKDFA
# test_description: Displacement of [3H]A-585539 from alpha7 nAChR rat cortex
measured_attribute: pKi
Give bare numbers, as −log10 of the molar value.

Send back Neuronal acetylcholine receptor subunit alpha-7 (Rattus norvegicus, UniProt Q05941) pKi of c1cc2cc(-c3ccc(O[C@H]4CN5CCC4CC5)nn3)ccc2[nH]1 only. 9.70

* * *

# tested_target: 5-hydroxytryptamine receptor 3A (Homo sapiens, UniProt P46098)
# Sequence (P46098 whole entry): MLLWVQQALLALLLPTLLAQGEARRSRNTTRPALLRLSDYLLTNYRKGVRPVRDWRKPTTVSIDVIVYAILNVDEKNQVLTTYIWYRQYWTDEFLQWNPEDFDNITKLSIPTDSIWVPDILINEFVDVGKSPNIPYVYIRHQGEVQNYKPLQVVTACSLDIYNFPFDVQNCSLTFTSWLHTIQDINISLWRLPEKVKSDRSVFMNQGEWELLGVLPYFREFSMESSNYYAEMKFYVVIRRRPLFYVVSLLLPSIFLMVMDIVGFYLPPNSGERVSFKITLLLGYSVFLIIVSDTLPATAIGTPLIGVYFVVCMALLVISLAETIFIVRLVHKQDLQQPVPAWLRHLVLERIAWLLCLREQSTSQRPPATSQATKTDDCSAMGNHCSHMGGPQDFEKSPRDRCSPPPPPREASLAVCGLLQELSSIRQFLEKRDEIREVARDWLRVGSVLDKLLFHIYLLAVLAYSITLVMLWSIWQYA
# test_description: Displacement of [3H]-BRL-43694 from human 5HT3 receptor
measured_attribute: Ki (nM)
Answers are plain numbers, in nM.

Input CN1CC2CN(c3ccc(-c4ccccc4)nn3)CC2C1 (stereo unspecified) , output reported Ki. 150

* * *

# tested_target: 5-hydroxytryptamine receptor 3A (Homo sapiens)
# test_description: Binding affinity to 5HT3 receptor
measured_attribute: IC50 (nM)
One number for each entry, in nM.

Input O=C(N[C@H]1CN2CCC1CC2)c1cc2cccc(Cl)c2s1 , output reported IC50. 299

* * *

# test_description: Volume of distribution in dog
# Assay type: ADME, organism-based, Canis lupus familiaris
# assay_conditions: in vivo
measured_attribute: Vd (L/kg)
Answers are plain numbers, in L/kg.

Input CN1CC2CN(c3ccc(-c4ccccc4)nn3)CC2C1 (stereo unspecified) , output reported Vd. 4

* * *

# test_description: Inhibition of sodium channel site 2
measured_attribute: Ki (µM)
Numbers only, in µM.

Input O=C(N[C@@H]1C2CCN(CC2)[C@H]1Cc1cccnc1)c1cc2ccccc2o1 [BRADANICLINE] , output reported Ki. 13

* * *

# test_description: Volume of distribution in mouse
# Format: ADME, organism-based
# assay_conditions: in vivo
measured_attribute: Vd (L/kg)
Answers are plain numbers, in L/kg.

Input CN1CC2CN(c3ccc(-c4ccccc4)nn3)CC2C1 (stereo unspecified) , output reported Vd. 4

* * *

# tested_target: Neuronal acetylcholine receptor subunit alpha-7 (Homo sapiens, UniProt P36544)
# Sequence (P36544 whole entry): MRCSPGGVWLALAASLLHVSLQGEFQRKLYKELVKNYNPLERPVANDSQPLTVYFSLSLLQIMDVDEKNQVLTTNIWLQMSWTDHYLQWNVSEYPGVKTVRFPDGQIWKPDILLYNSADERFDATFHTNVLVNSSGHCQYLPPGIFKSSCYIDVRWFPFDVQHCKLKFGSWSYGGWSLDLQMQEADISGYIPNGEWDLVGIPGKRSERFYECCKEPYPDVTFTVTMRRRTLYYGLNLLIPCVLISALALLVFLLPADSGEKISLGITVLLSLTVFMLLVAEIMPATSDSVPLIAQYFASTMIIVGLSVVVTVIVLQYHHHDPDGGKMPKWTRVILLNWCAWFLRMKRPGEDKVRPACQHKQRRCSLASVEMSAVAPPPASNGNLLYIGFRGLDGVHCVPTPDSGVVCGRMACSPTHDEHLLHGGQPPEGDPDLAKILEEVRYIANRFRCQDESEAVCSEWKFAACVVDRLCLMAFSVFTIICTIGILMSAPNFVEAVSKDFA
# test_description: Agonist activity at human alpha7 nAChR expressed in GH4C1 cells assessed as potentiation of nicotine-induced calcium signal
# Format: functional, cell-based, GH4-C1
measured_attribute: pEC50
Give bare numbers, as −log10 of the molar value.

Input Cn1ccc2cc3c(cc21)CCN3C(=O)Nc1cccnc1 , output reported pEC50. 5.82

* * *

# tested_target: 5-hydroxytryptamine receptor 3A (Homo sapiens)
# test_description: Binding affinity to human 5HT3 receptor at 10 uM by radioligand binding assay
measured_attribute: inhibition

Look over these answered cases.
[[record]]
molecule = "c1cc2cc(-c3ccc(O[C@H]4CN5CCC4CC5)nn3)ccc2[nH]1"
measured = "4%"

[[record]]
molecule = "c1cncc(C2CCC3CCN2CC3)c1 (stereo unspecified)"
measured = "< 50%"

[[record]]
molecule = "Cc1ccc(C(=O)N[C@@H]2C3CCN(CC3)[C@H]2Cc2cccnc2)s1"
measured = "20%"

[[record]]
molecule = "O=C1NC[C@@]2(CN3CCC2CC3)O1"
measured = "2.5%"

[[record]]
molecule = "O=C(N[C@@H]1C2CCN(CC2)[C@H]1Cc1cccnc1)c1cc2ccccc2o1"
measured = "25%"


Okay, next one:
Input O=C(Oc1ccc(Br)cc1)N1CCN2CCC1CC2 , output reported inhibition. < 50%

* * *

Give pEC50 for every item shown.
# tested_target: Neuronal acetylcholine receptor subunit alpha-7 (Homo sapiens, UniProt P36544)
# test_description: Agonist activity at alpha7 nAChR
# Format: functional
One number for each entry, as −log10 of the molar value.

Look over these answered cases.
[[record]]
compound = "Cc1nc2nc(N3CCN4CCC3CC4)oc2cc1Cl"
measured = 6.80

[[record]]
compound = "O=C(N[C@H]1CN2CCC1CC2)c1ccc2occc2c1"
measured = 7.37

[[record]]
compound = "O=C(CCCCN1CCCCC1)Nc1ccc(-c2cccnc2)cc1"
measured = 6.46


I have 6 compounds here; please give me pEC50 for each one.
1. O=C(NCCCCN1CCCCC1)Nc1ccc(-c2ccccn2)cc1
2. CN1CC2CN(c3ccc(-c4ccc5[nH]ccc5c4)nn3)CC2C1 (stereo unspecified)
3. O=C(N[C@H]1CN2CCC1CC2)c1ccc2cc[nH]c2c1
4. O=C(N[C@H]1CN2CCC1CC2)c1ccc2ccsc2c1
5. Clc1cnc2nc(N3CCN4CCC3CC4)oc2c1
6. O=C(NCCCCN1CCCCC1)Nc1ccc(-c2cccnc2)cc1

1. 6.89
2. 6.49
3. 7.00
4. 7.32
5. 6.80
6. 6.92

I have 2 compounds here; please give me pEC50 for each one.
1. CN1CC2CN(c3ccc(-c4ccccc4)nn3)CC2C1 (stereo unspecified)
2. O=C(N[C@H]1CN2CCC1CC2)c1ccc2ccoc2c1

1. 5.37
2. 7.07

* * *

# tested_target: Voltage-gated inwardly rectifying potassium channel KCNH2 (Homo sapiens, UniProt Q12809)
# Sequence (Q12809 whole entry): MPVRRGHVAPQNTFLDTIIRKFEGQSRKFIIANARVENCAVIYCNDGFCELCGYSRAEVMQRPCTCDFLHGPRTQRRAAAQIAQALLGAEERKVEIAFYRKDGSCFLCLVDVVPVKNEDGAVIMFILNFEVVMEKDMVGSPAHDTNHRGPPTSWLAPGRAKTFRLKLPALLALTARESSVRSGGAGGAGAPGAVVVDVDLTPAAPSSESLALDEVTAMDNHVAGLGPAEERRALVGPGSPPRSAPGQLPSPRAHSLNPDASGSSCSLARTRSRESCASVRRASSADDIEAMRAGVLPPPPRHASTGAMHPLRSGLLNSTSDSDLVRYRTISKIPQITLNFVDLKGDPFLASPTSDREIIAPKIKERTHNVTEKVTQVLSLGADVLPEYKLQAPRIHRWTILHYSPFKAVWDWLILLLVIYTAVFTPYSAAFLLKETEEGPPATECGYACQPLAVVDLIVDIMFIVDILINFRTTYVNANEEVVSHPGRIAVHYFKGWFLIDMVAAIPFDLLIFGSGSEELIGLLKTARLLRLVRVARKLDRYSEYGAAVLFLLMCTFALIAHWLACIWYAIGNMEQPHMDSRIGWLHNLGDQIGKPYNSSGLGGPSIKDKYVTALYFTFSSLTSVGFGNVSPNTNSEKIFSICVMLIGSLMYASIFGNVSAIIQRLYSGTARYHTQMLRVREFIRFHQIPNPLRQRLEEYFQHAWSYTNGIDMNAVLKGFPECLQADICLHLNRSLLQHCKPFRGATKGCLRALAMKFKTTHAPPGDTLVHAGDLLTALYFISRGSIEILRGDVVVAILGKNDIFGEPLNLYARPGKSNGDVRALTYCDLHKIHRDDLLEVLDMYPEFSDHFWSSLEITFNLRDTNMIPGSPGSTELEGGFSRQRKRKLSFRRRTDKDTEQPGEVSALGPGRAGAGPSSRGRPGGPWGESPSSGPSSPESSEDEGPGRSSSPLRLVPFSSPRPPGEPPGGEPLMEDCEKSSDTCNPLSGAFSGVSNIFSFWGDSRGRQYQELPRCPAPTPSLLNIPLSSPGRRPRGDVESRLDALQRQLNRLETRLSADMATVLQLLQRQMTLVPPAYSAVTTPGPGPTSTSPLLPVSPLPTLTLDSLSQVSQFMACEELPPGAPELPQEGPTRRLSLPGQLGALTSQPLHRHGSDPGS
measured_attribute: IC50 (nM)
One number for each entry, in nM.

Send back Voltage-gated inwardly rectifying potassium channel KCNH2 (Homo sapiens, UniProt Q12809) IC50 of c1cc(-c2cnc3c(c2)C[C@@]2(CN4CCC2CC4)O3)co1 only. 1600

* * *

# tested_target: Neuronal acetylcholine receptor; alpha4/beta2 (Homo sapiens, UniProt P17787+P43681)
# Sequence (P17787 whole entry): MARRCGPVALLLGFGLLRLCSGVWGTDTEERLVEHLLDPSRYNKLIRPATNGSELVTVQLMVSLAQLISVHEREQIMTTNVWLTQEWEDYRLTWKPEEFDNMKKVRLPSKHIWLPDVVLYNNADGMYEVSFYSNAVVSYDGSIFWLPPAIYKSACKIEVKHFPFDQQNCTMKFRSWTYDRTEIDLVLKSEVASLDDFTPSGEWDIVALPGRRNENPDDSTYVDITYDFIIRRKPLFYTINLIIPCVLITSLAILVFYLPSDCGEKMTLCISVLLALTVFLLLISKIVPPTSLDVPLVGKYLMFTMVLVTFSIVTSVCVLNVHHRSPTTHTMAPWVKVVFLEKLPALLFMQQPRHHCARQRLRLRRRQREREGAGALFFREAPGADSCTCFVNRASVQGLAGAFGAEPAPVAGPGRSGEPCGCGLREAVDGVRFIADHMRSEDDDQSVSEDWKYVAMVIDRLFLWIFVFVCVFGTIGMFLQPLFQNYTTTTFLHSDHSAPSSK
# Sequence (P43681 whole entry): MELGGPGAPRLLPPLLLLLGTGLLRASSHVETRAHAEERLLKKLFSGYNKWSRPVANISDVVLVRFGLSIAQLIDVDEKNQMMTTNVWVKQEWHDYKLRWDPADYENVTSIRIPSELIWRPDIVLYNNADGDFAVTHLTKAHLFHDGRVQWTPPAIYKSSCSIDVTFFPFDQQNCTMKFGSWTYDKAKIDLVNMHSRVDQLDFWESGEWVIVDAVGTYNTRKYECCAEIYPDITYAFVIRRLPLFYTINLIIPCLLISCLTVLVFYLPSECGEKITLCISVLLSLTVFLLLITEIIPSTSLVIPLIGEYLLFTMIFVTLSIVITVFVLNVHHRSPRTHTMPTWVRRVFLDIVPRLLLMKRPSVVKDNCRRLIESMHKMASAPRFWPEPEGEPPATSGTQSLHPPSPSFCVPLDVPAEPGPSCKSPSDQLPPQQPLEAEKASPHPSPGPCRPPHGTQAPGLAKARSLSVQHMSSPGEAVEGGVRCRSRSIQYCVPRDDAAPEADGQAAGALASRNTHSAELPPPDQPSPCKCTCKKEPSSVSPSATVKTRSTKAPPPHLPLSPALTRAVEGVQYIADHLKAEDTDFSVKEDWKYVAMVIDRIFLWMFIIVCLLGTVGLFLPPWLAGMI
# test_description: Binding affinity to alpha4beta2 nAChR
# Format: protein-complex assay
measured_attribute: Ki (µM)
Give bare numbers, in µM.

I have 2 molecules here; please give me Ki for each one.
1. CN1CC2CN(c3ccc(-c4ccccc4)nc3)CC2C1 (centres undefined)
2. c1ccc(-c2ccc(N3CC4CNCC4C3)cn2)cc1 (centres undefined)

1. 28
2. 0.096

* * *

# test_description: Oral bioavailability in rat
# Type: ADME, organism-based
# assay_conditions: in vivo
measured_attribute: bioavailability
Your answer should be a number followed by the unit of measure.

Input CN1CC2CN(c3ccc(-c4ccccc4)nn3)CC2C1 (stereo unspecified) , output reported bioavailability. 90%

* * *

# test_description: Inhibition of non-selective opioid receptor
measured_attribute: Ki (µM)
Numbers only, in µM.

Input O=C(N[C@@H]1C2CCN(CC2)[C@H]1Cc1cccnc1)c1cc2ccccc2o1 , output reported Ki. 13

* * *

# tested_target: 5-hydroxytryptamine receptor 3A (Homo sapiens, UniProt P46098)
# Sequence (P46098 whole entry): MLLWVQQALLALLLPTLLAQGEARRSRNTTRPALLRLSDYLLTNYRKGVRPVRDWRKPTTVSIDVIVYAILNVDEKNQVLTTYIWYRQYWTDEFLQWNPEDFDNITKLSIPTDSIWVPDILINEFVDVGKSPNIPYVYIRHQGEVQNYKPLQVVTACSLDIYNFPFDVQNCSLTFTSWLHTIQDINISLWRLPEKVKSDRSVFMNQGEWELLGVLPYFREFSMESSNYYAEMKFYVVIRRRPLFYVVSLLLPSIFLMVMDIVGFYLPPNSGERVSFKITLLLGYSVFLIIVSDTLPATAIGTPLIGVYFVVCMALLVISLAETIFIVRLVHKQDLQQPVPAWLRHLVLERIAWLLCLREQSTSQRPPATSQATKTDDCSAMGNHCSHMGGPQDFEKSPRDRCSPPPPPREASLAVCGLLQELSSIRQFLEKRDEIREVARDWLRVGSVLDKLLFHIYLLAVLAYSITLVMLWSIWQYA
# test_description: Antagonist activity at 5HT3 receptor expressed in Xenopus oocyte
# Format: functional
measured_attribute: pIC50
Give bare numbers, as −log10 of the molar value.

Send back 5-hydroxytryptamine receptor 3A (Homo sapiens, UniProt P46098) pIC50 of O=C(N[C@@H]1CN2CCC1CC2)c1n[nH]c2ccccc12 [FACINICLINE] only. 8.55
